Target: T1, CD19 endogenously expressed on Raji and NALM-6 cells (human, UniProt P15391 20-556)
T1 construct: whole, on cells; also called CD19 on NALM-6 cells; CD19 on Raji cells
T1 sequence (looked up): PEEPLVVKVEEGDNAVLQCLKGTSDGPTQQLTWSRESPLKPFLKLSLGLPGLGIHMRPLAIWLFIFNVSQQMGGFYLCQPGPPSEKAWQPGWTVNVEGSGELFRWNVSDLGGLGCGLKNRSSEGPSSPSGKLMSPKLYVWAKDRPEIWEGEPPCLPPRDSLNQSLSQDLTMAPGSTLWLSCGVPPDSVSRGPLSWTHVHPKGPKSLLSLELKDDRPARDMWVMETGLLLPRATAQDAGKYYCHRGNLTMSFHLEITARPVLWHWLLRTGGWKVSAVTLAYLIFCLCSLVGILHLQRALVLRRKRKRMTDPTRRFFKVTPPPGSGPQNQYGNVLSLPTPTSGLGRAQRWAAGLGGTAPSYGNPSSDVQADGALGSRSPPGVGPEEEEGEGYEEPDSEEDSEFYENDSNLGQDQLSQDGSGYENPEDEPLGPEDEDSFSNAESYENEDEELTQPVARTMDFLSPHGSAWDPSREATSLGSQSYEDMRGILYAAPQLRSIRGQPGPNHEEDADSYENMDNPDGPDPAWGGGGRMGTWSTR
Assay: flow cytometry, serial dilution on NALM-6 cells
EXPERIMENTAL ENDPOINT: pEC50
One number for each entry, as −log10 of the molar value.

Consider the following illustrative entries.
# BINDER, pEC50
rows = [
    ("Antibody 4 (antibody, V domains shown, Human IgG produced in Adimab yeast, purified on Protein A; Has the VH and VL of #4 scFv; also called CD19 Antibody 4) VH: QVQLVESGGGVVQPGRSLRLSCAASGFTFSSYGMHWVRQAPGKGLEWVALIWYDGSNKYYADSVKGRFTISRDNSKNTLYLQMNSLRAEDTAVYYCAKPVEGLLRGFDYWGQGTLVTVSS VL: EIVLTQSPGTLSLSPGERATLSCRASQSVSSSYLAWYQQKPGQAPRLLIYGASSRATGIPDRFSGSGSGTDFTLTISRLEPEDFAVYYCQQVDSLHPFTFGGGTKVEIK", 9.28),
    ("Antibody 5 (antibody, V domains shown, Human IgG produced in Adimab yeast, purified on Protein A; Has the VH and VL of #5 scFv; also called CD19 Antibody 5) VH: QVQLVESGGGVVQPGRSLRLSCAASGFTFSSYGMHWVRQAPGKGLEWVALIWYDGSNKYYADSVKGRFTISRDNSKNTLYLQMNSLRAEDTAVYYCAKPVEGLLRGFDYWGQGTLVTVSS VL: EIVLTQSPGTLSLSPGERATLSCRASQSVSSSYLAWYQQKPGQAPRLLIYGASSRATGIPDRFSGSGSGTDFTLTISRLEPEDFAVYYCQQAGGVPPLTFGGGTKVEIK", 9.66),
    ("Antibody 2 (antibody, V domains shown, Human IgG produced in Adimab yeast, purified on Protein A; also called CD19 Antibody 2) VH: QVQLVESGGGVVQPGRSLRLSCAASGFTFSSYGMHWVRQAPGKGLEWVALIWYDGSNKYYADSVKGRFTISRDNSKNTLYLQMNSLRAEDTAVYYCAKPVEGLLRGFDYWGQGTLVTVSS VL: EIVLTQSPGTLSLSPGERATLSCRASQSVSSSYLAWYQQKPGQAPRLLIYGASSRATGIPDRFSGSGSGTDFTLTISRLEPEDFAVYYCQQAGAVPITFGGGTKVEIK", 9.50),
]

For each of the binders below, state pEC50.
1. Antibody 7 (antibody, V domains shown, Human IgG produced in Adimab yeast, purified on Protein A; Has the VH and VL of #7 scFv; also called CD19 Antibody 7) VH: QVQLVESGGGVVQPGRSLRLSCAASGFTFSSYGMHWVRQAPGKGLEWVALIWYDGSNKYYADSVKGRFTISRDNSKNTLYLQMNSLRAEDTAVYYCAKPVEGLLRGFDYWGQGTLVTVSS VL: EIVMTQSPGTLSLSPGERATLSCRASQSVSSSYLAWYQQKPGQAPRLLIYGASSRATGIPDRFSGSGSGTDFTLTISRLEPEDFAVYYCQQAGGVPPFTFGGGTKVEIK
2. Antibody 1 (antibody, V domains shown, Human IgG produced in Adimab yeast, purified on Protein A; Has the VH and VL of #1 scFv; also called CD19 Antibody 1) VH: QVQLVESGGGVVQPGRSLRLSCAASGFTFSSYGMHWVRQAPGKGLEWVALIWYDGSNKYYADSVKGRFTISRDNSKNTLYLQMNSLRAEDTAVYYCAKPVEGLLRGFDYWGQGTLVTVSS VL: EIVMTQSPGTLSLSPGERATLSCRASQSVSSSYLAWYQQKPGQAPRLLIYGASNRATGIPDRFSGSGSGTDFTLTISRLEPEDFAVYYCQQAGVFPFTFGGGTKVEIK
3. Antibody 15 (antibody, V domains shown, Human IgG produced in Adimab yeast, purified on Protein A; Has the VH and VL of #15 scFv; also called CD19 Antibody 15) VH: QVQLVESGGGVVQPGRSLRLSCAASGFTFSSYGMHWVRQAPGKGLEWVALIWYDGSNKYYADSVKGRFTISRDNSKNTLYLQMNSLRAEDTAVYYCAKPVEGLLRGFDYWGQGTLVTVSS VL: EIVLTQSPGTLSLSPGERATLSCRASQSVSSSYLAWYQQKPGQAPRLLIYGASRRATGIPDRFSGSGSGTDFTLTISRLEPEDFAVYYCQQAGIPPYTFGGGTKVEIK
4. Antibody 6 (antibody, V domains shown, Human IgG produced in Adimab yeast, purified on Protein A; Has the VH and VL of #6 scFv; also called CD19 Antibody 6) VH: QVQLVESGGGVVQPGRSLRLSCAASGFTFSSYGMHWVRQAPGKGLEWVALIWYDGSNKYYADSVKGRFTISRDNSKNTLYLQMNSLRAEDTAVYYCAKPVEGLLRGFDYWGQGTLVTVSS VL: EIVLTQSPGTLSLSPGERATLSCRASQSVRSSYLAWYQQKPGQAPRLLIYGASSRATGIPDRFSGSGSGTDFTLTISRLEPEDFAVYYCQQAGVPPLTFGGGTKVEIK

Given back:
1: 9.68; 2: 9.23; 3: 9.57; 4: 9.75
